The compounds below have reported Ki for Coagulation factor IX (Homo sapiens, UniProt P00740).
parameter-measured: Ki (nM)

As a guide, the following entries are already answered.
Exam item: Please report the recorded Ki for N=C(N)c1cccc(-n2nc(C(F)(F)F)cc2C(=O)Nc2ccc(-n3cnc4cc(Cl)c(Cl)cc43)cc2F)c1 .
Marked response: 26

Exam item: Please report the recorded Ki for N=C(N)c1cccc(-n2nc(-c3cccnc3)cc2C(=O)Nc2ccc(-n3cnc4ccccc43)cc2)c1 .
Marked response: 5.5

Exam item: Please report the recorded Ki for N=C(N)c1cccc(-n2nc(C(F)(F)F)cc2C(=O)Nc2ccc(-n3cnc4ncccc43)cc2F)c1 .
Marked response: 7.9

Exam item: Please report the recorded Ki for N=C(N)c1cccc(-n2nc(C(F)(F)F)cc2C(=O)Nc2ccc(-n3cnc4ccncc43)cc2F)c1 .
Marked response: 7.9

Exam item: Please report the recorded Ki for N=C(N)c1cccc(-n2nc(Cn3cnnn3)cc2C(=O)Nc2ccc(-n3cnc4ccccc43)cc2)c1 .
Marked response: 11

I. N=C(N)c1cccc(-n2nc(C(F)(F)F)cc2C(=O)Nc2ccc(-n3cnc4cc(N)ccc43)cc2F)c1
II. N=C(N)c1cccc(-n2nc(C(F)(F)F)cc2C(=O)Nc2ccc(-n3ccc4ccccc43)cc2F)c1
Exam item: Please state the entry with greater Ki among I and II . Answer format: the label of the selected item.
Marked response: II

----------
pKi: −log10 of the molar value.
The molecules below have reported pKi for Coagulation factor X (Homo sapiens, UniProt P00742).
parameter-measured: pKi

1. N=C(N)c1cccc(-n2nc(C(F)(F)F)cc2C(=O)Nc2ccc(-n3cnc4ccncc43)cc2F)c1
2. N=C(N)c1cccc(-n2nc(Cn3cncn3)cc2C(=O)Nc2ccc(-n3cnc4ccccc43)cc2)c1
Exam item: Please state the entry with greater pKi among 1 and 2 . Answer format: the label of the selected item.
Marked response: 1

1. N=C(N)c1cccc(-n2nc(C(F)(F)F)cc2C(=O)Nc2ccc(-n3cnc4ncccc43)cc2F)c1
2. N=C(N)c1cccc(-n2nc(C(F)(F)F)cc2C(=O)Nc2ccc(-n3ccnc3)cc2)c1
Exam item: Hey, between 1 and 2 which has a smaller measured pKi? Answer format: the label of the selected item.
Marked response: 2
(2: 10.05, 1: 10.70)

----------
Target: Coagulation factor IX (Homo sapiens)
Sequence (P00740 47-191 limits assumed): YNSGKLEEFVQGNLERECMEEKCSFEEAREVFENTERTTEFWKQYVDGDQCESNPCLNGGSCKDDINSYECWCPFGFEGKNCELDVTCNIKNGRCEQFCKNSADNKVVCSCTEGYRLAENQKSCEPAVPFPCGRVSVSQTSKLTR
Sequence (P00740 227-461 limits assumed): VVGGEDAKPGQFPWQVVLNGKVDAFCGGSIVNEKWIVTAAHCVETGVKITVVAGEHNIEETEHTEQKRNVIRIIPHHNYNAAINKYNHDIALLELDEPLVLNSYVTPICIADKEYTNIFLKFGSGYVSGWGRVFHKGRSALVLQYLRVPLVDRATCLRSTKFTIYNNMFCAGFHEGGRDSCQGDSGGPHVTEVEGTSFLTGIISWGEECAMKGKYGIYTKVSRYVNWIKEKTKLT
pKi: −log10 of the molar value.
parameter-measured: pKi

Exam item: Please report the recorded pKi for N=C(N)c1cccc(-n2nc(Cn3ccnc3)cc2C(=O)Nc2ccc(-n3cnc4ccccc43)cc2)c1 .
Marked response: 6.92

A. Cc1cc(C(=O)Nc2ccc(-n3cnc4ccccc43)cc2)n(-c2cccc(C(=N)N)c2)n1
B. N=C(N)c1cccc(-n2nc(C(F)(F)F)cc2C(=O)Nc2ccc(-n3cnc4cnccc43)cc2F)c1
Exam item: Please state the entry with greater pKi among A and B . Answer format: the label of the selected item.
Marked response: B
